system tested: human EP1 receptor (Homo sapiens)
Sequence (P34995 whole entry): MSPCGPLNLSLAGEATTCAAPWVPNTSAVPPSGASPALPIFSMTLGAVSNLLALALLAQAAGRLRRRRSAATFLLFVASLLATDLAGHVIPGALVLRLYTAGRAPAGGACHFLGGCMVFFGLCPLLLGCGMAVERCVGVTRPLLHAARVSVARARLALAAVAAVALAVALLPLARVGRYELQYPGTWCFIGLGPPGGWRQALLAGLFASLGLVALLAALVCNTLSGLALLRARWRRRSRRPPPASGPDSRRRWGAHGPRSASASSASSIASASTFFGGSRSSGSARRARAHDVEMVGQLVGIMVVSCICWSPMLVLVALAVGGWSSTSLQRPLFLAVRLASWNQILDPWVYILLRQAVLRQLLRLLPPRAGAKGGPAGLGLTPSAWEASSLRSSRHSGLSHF
experiment: Test 1: Human EP1 receptor radioligand binding assay ([3H]-PGE2, transfected HEK-293 cell membranes)
Design: expressed in transfected cells; host or cells: HEK-293 cell membranes
measurement setup: read-out: Results of Test 1 (Binding assay), % inh
assay metric: inhibition at 10 µM

Consider the worked cases shown below.
• O=C(O)c1cncc2c1CCN2Cc1cc(Cl)ccc1OCc1ccc(Cl)cc1F [Example 248] = > 75%
• O=C(O)c1ccnc2c1cnn2Cc1cc(Cl)ccc1OCc1ccc(Cl)cc1F [Example 212] = > 75%

Exam item: What does the data say about its inhibition at 10 µM? Entry: O=C(O)c1cccc2c1ccn2Cc1cc(Cl)ccc1OCc1cc(F)c(F)cc1Cl [Example 31]
Marked response: 45 to 75%

Exam item: Record: O=C(O)c1cccc2c1OCCN2Cc1cc(Cl)ccc1OCc1ccc(Cl)cc1F [Example 117]
Marked response: > 75%

Exam item: Record: CCCOc1ccc(F)cc1Cn1ccc2c(C(=O)O)cccc21 [Example 104]
Marked response: 45 to 75%

Exam item: Record: O=C(O)c1cccc2c1c(CO)cn2Cc1cc(F)ccc1OC1CCC1 [Example 148]
Marked response: > 75%

All figures here come from patent US9518015B2.
